test system: SK-MEL-28; assay: NCI tumour cell line growth inhibition, 48 h
Activity calls are given as the source filed them. No stated cut-off is given here; in the data, active = GI50 up to about 1.1 µM and inactive = higher.
// one of true (active), false (inactive), no free text

Examples from the recorded data:
compound="COC1CC(OS(=O)(=O)c2ccc(C)cc2)C(OS(=O)(=O)c2ccc(C)cc2)C(COS(=O)(=O)c2ccc(C)cc2)O1 (stereo not given)" class_name=false
compound=COc1ccc(C[C@H](N)C(=O)N2C[C@@H](CO)C[C@@H](n3cnc4c(N(C)C)ncnc43)C2)cc1 class_name=false
compound=CC[C@]12C=CCN3CC[C@@]4(c5ccc(OC)cc5N(C)[C@H]4[C@@](O)(C(=O)OC)[C@@H]1OC(C)=O)[C@@H]32 class_name=false
compound=O=C1COc2cc3c(cc2N1)SCCC(=O)N3 class_name=false
compound=CCSCN(C)c1nc(N(C)C)nc(N(C)C)n1 class_name=false

stdin: Tell me the recorded outcome of this test for CC(=O)Oc1c2c(c(O)c3ccccc13)C(n1cnc3c(ncn3C3OC(CO)C4OC(C)(C)OC43)c1=N)CCC2 (stereo not given) .
stdout: false

stdin: Tell me the recorded outcome of this test for CO[C@H]1[C@@H](O)[C@@H](O)O[C@@H](O[C@H]2CC[C@@]3(C)[C@H](CC[C@@H]4[C@@H]3[C@H](O)C[C@]3(C)[C@@H](C5=CC(=O)OC5)CC[C@]43O)C2)[C@@H]1O .
stdout: true

---

test system: MDA-MB-231; experiment: NCI tumour cell line growth inhibition, 48 h
The source made the active and inactive calls. Rule as the data show it: active = GI50 up to about 1.1 µM and inactive = higher.
// one of true = active, false = inactive, no free text

Examples from the recorded data:
compound=COCOc1cc(OC)ccc1C/C=N/O class_name=false
compound=COc1ccc(/C(Cl)=C(\C=O)c2ccc([N+](=O)[O-])cc2)cc1OC class_name=false
compound="CCOC(=O)C(NC(=O)c1cccc(Cl)c1)(Nc1ccc(S(=O)(=O)Nc2cc(C)nc(C)n2)cc1)C(F)(F)F (stereo unspecified)" class_name=false
compound=COc1ccc(/C(Cl)=C(\C=O)c2cc(OC)c(OC)c(OC)c2)cc1OC class_name=false
compound="CC(=O)NC1C(OCc2ccccc2)OC(CO)C(O)C1OCC(=O)N1CCCC1C(=O)NC(CCC(=O)NCCCCCNc1c2ccccc2nc2cccc([N+](=O)[O-])c12)C(N)=O (stereo unspecified)" class_name=true
compound=N#Cc1c(-c2ccc([N+](=O)[O-])cc2)cc(-c2ccc(Nc3ccnc4cc(C(F)(F)F)ccc34)cc2)[nH]c1=O class_name=false

stdin: Tell me the recorded outcome of this test for O=c1cc(-c2ccc(O)cc2)n(C2CC2)c2ccccc12 .
stdout: false

stdin: Tell me the recorded outcome of this test for Nc1nc(-c2ccccc2)c(CC(=O)O)s1 .
stdout: false

stdin: Tell me the recorded outcome of this test for O=c1[nH]nc(Cc2ccccc2)n1N=C1CCCCC1 .
stdout: false

stdin: Tell me the recorded outcome of this test for Cc1nc2c(=O)[nH]c(=O)nc-2n(CCO)c1C .
stdout: false

stdin: Tell me the recorded outcome of this test for O=C(O)CNC(=O)c1ccc(-c2ccccc2)cc1 .
stdout: false

---

tested on: SK-MEL-2; experiment: NCI tumour cell line growth inhibition, 48 h
Calls of active or inactive are those of the source. No stated cut-off is given here; in the data, active = GI50 up to about 1.1 µM and inactive = higher.
Parameter GI50: see the listing below.

compound=O=[N+]([O-])c1ccc(/C=C/c2ccc(/C=C/c3ccc([N+](=O)[O-])cc3[N+](=O)[O-])cc2)c([N+](=O)[O-])c1 recorded_value="> 100 µM (inactive)"
compound="CSCCC(NCc1c(O)ccc2c(-c3ccccc3)cc(=O)oc12)C(=O)O (stereo not drawn)" recorded_value="> 100 µM (inactive)"
compound=COC(=O)c1cc(OCc2cc(OCc3ccc(Br)cc3)cc(OCc3ccc(Br)cc3)c2)cc(OCc2cc(OCc3ccc(Br)cc3)cc(OCc3ccc(Br)cc3)c2)c1 recorded_value="> 100 µM (inactive)"
compound="CCOC(=O)C1=NN(c2ccc(C)cc2)C2(c3ccccc3)C=C(c3ccccc3)N(C)CCN12 (stereo not drawn)" recorded_value="> 100 µM (inactive)"
compound=Oc1nc2c(c(-c3ccccc3Cl)n1)COC/C2=C\c1ccccc1Cl recorded_value="> 100 µM (inactive)"

For Cc1ccc(-n2cc(-c3ccc(Cl)cc3)c3c(NNC(=S)NCc4ccccc4)ncnc32)cc1 the compound record lists GI50 as 3.17 µM (inactive)

For c1ccc2/c3[nH]/c(c2c1)=N\c1ccc(cc1)-c1nc2ccc(cc2o1)/N=c1/[nH]/c(c2ccccc12)=N/c1ccc2nc(oc2c1)-c1ccc(cc1)\N=3 the compound record lists GI50 as 38.8 µM (inactive)

For O=C1c2ccccc2C(=O)N1/N=C\c1ccc(Br)cc1 the compound record lists GI50 as > 10 µM (inactive)

---

Parameter GI50: see the listing below.
test system: SF-295; assay: NCI tumour cell line growth inhibition, 48 h
Activity calls are given as the source filed them. Cut-off read from the data, not from the text of the source: active = GI50 up to about 1.1 µM and inactive = higher.

compound=c1ccc(-c2nnc(CCCCCCCCc3nnc(-c4ccccc4)o3)o2)cc1 recorded_value="> 100 µM (inactive)"
compound=COc1ccccc1/C=C/c1c(N)ncnc1Nc1cccc(Cl)c1 recorded_value="26.2 µM (inactive)"
compound="Clc1ccc(C2SCc3nc4ccccc4n32)cc1 (stereo unspecified)" recorded_value="26.2 µM (inactive)"
compound=CSC(=S)c1ccc(C(=S)SC)cc1 recorded_value="> 100 µM (inactive)"
compound=N#Cc1nc(CCCCCN2C(=O)c3ccccc3C2=O)oc1N recorded_value="> 100 µM (inactive)"

Here is another compound to look at.
For O=C(O)CN1CCN2CCOCCOCCN(CC1)CCN(CC(=O)O)CC2 the compound record lists GI50 as > 100 µM (inactive)

---

Parameter GI50: see the listing below.
system: MDA-N; test: NCI tumour cell line growth inhibition, 48 h
Active and inactive are the calls of the source. Cut-off read from the data, not from the text of the source: active = GI50 up to about 1.1 µM and inactive = higher.

Worked set:
molecule=Clc1ccccc1/C=c1\nc(-c2ccccc2)n2c1nc1ccccc12 study_target=MDA-N recorded_value="30.6 µM (inactive)"
molecule=Clc1ccc(CCNC2(c3cc4ccccc4s3)CCCCC2)cc1Cl study_target=MDA-N recorded_value="32.3 µM (inactive)"
molecule=c1ccc(Nc2nn3c(CCCCCCCCc4nnc5sc(Nc6ccccc6)nn45)nnc3s2)cc1 study_target=MDA-N recorded_value="18.4 µM (inactive)"

For CCN(CC)CCCC(C)Nc1ccnc2cc(Cl)ccc12 (stereo not given) [CHLOROQUINE PHOSPHATE] the molecule record lists GI50 as 16.6 µM (inactive)

For Cc1cc(C)c(OC(=O)Nc2cccc3ccccc23)c(-c2ccccc2)c1 the molecule record lists GI50 as 29 µM (inactive)

---

tested on: Malme-3M; experiment: NCI tumour cell line growth inhibition, 48 h
Activity calls are given as the source filed them. Rule as the data show it: active = GI50 up to about 1.1 µM and inactive = higher.
// one of active, inactive, no free text

Examples from the recorded data:
compound="COC(=O)C1(C)CCc2c(OC)ccc(OC)c2C1=O (configuration not stated)" class_name=inactive
compound=CC(=O)Nc1nnc(S(=O)(=O)NC(=S)Nc2ccc(Cl)cc2)s1 class_name=inactive
compound="Cc1cc(O)c2c3c(ccc2c1)C(=O)c1c(O)cccc1C3=O [TETRANGULOL]" class_name=active

stdin: Tell me the recorded outcome of this test for COCOc1cc(OC)ccc1C/C=N/O .
stdout: inactive

stdin: Tell me the recorded outcome of this test for CN1N=C(c2ccncc2)OC1c1ccc(Cl)c(Cl)c1 (configuration not stated) .
stdout: inactive

stdin: Tell me the recorded outcome of this test for O=C(CC1(O)C(=O)Nc2ccccc21)c1ccco1 (configuration not stated) .
stdout: inactive

stdin: Tell me the recorded outcome of this test for COc1cc2c(cc1O)NC(=O)[C@@H]1C[C@@H](O)CN1C2=O .
stdout: inactive

stdin: Tell me the recorded outcome of this test for COc1ccc2c(c1)OCC1Cc3cccc(OC)c3OC21 (configuration not stated) .
stdout: inactive

stdin: Tell me the recorded outcome of this test for COC(=O)[C@@H](O)[C@]1(C(=O)OC)C2O[C@@H](OC)[C@@H]1CCCCCC[C@H]2O .
stdout: inactive

stdin: Tell me the recorded outcome of this test for Nc1nc(-c2ccccc2)c(CC(=O)O)s1 .
stdout: inactive

stdin: Tell me the recorded outcome of this test for CC(C)(CO)NC(=O)c1cccs1 .
stdout: inactive

stdin: Tell me the recorded outcome of this test for CCCCOCOc1ccccc1P1(=O)COc2ccccc2OC1 .
stdout: inactive

---

tested on: PC-3; assay: NCI tumour cell line growth inhibition, 48 h
Activity calls are given as the source filed them. Rule as the data show it: active = GI50 up to about 1.1 µM and inactive = higher.
// one of active, inactive, no free text

Examples from the recorded data:
molecule="C=CCC1CC(n2cc(C)c(=O)[nH]c2=O)OC1CO[Si](C)(C)C(C)(C)C (configuration not stated)" class_name=inactive
molecule=COC1(OC)CCN(Cc2ccccc2)C1=O class_name=inactive
molecule=COc1cc2c(cc1OC)C(=O)/C(=C/c1ccccc1)CC2 class_name=inactive
molecule=CC/C(Cl)=N\OC(=O)Nc1ccc(F)c(Cl)c1 class_name=inactive
molecule=COc1ccccc1/C=C/c1c(N)ncnc1Nc1cccc(Cl)c1 class_name=active

stdin: Tell me the recorded outcome of this test for COC(=O)[C@@]12CCCC(=O)[C@@H]1[C@H]1CCC[C@H]12 .
stdout: inactive

stdin: Tell me the recorded outcome of this test for O=C1c2ccccc2C(=O)N1CCc1ncc[nH]1 .
stdout: inactive

stdin: Tell me the recorded outcome of this test for O=C(NCCCCCCNC(=O)n1cc(F)c(=O)[nH]c1=O)NCCCOCCOCCOCCOCCOCCOCCOCCOCCOCCOCCOCCOCCOCCOCCOCCOCCOCCOCCOCCOCCOCCCNC(=O)C(O)C(O)C(O)C(O)CO (configuration not stated) .
stdout: inactive

stdin: Tell me the recorded outcome of this test for CC(C)(O)CCc1ccc(O)c2c(=O)c3c(O)c4c(cc3oc12)O[C@H]1OC=C[C@@]41O .
stdout: active

stdin: Tell me the recorded outcome of this test for CC1CCC(C(=O)O)(C(Br)C(=O)O)CC1 (configuration not stated) .
stdout: inactive

The reported numbers originate from ChEMBL document CHEMBL1201862.
